The values you see were collected from ChEMBL document CHEMBL1201862.

System: HCC 2998
procedure-summary: NCI tumour cell line growth inhibition, 48 h
Active and inactive are the calls of the source. Rule as the data show it: active = GI50 up to about 1.1 µM and inactive = higher.
# output must be one of Yes (active), No (inactive)

Data request: Any idea what this test logged for O=P1(N(CCCl)CCCl)Oc2c(Cl)cc(Cl)c(Cl)c2Cc2c(Cl)c(Cl)cc(Cl)c2O1 ?
Data returned: No

----------
Test system: HCC 2998
procedure-summary: NCI tumour cell line growth inhibition, 48 h
Calls of active or inactive are those of the source. Cut-off read from the data, not from the text of the source: active = GI50 up to about 1.1 µM and inactive = higher.
measure-name: GI50

Data request: Hi! What's the reported GI50 for CCN(CC)CC(O)c1ccc2ccc3ccccc3c2c1 (stereo unspecified) on HCC 2998?
Data returned: 11 µM (inactive)

Data request: Hi! What's the reported GI50 for Fc1cccc(C2SCC3=Nc4ccccc4CN32)c1 (stereo unspecified) on HCC 2998?
Data returned: 70.1 µM (inactive)

Data request: Hi! What's the reported GI50 for COc1ccc2c(c1)[n+]([O-])c(C(=O)C/C(=N/NC(=O)c1ccccc1O)C(=O)Nc1ccc(Cl)c(C(F)(F)F)c1)c(C)[n+]2[O-] on HCC 2998?
Data returned: 32.7 µM (inactive)

Data request: Hi! What's the reported GI50 for CN(C)CCNC(=O)c1cc([N+](=O)[O-])cn1C on HCC 2998?
Data returned: > 100 µM (inactive)

Data request: Hi! What's the reported GI50 for O=c1/c(=C/c2ccccc2[N+](=O)[O-])sc2nnc(-c3cccnc3)n12 on HCC 2998?
Data returned: > 100 µM (inactive)

---
Data request: Hi! What's the reported GI50 for O=C(O)c1ccccc1/C=N\N=C1NCCCCN1 on HCC 2998?
Data returned: > 100 µM (inactive)

Data request: Hi! What's the reported GI50 for CC(N)Cc1ccc(Cl)cc1 (stereo unspecified) on HCC 2998?
Data returned: > 100 µM (inactive)

Data request: Hi! What's the reported GI50 for Nc1ccccc1SCc1csc(-c2ccc(Cl)cc2)n1 on HCC 2998?
Data returned: 16.4 µM (inactive)

Data request: Hi! What's the reported GI50 for O=C(O)CCNS(=O)(=O)c1ccc(NC(=O)c2ccccc2)cc1 on HCC 2998?
Data returned: > 100 µM (inactive)

Data request: Hi! What's the reported GI50 for N#CCCN(CCC#N)c1ccc(/C=C2\SC(=S)NC2=O)cc1 on HCC 2998?
Data returned: > 100 µM (inactive)

Data request: Hi! What's the reported GI50 for CON(C)C(=O)C(C)N(Cc1ccccc1)Cc1ccccc1 (stereo unspecified) on HCC 2998?
Data returned: > 100 µM (inactive)

----------
System: HCT-116
procedure-summary: NCI tumour cell line growth inhibition, 48 h
Calls of active or inactive are those of the source. Rule as the data show it: active = GI50 up to about 1.1 µM and inactive = higher.
# output must be one of Y = active, N = inactive

Data request: Any idea what this test logged for C=C1C(=O)C2=CC1CCC(=O)C1(C)CCC(OC(C)=O)C(C)(C)C1CC2O (configuration not stated) ?
Data returned: N

Pending molecule:
Data request: Any idea what this test logged for Cc1ccc(CC(Cc2ccccc2C)C(=O)O)c(C(=O)O)c1 (configuration not stated) ?
Data returned: N

----------
Tested on: 786-0
procedure-summary: NCI tumour cell line growth inhibition, 48 h
Calls of active or inactive are those of the source. No stated cut-off is given here; in the data, active = GI50 up to about 1.1 µM and inactive = higher.
measure-name: GI50

Solved cases below.
Data request: GI50 for CCOc1c(OC)cc(C2c3cc4c(c(OCC)c3CC3COC(=O)C32)OCO4)cc1OC (configuration not stated) ?
Data returned: 2.62 µM (inactive)

Data request: GI50 for Cn1cnc([N+](=O)[O-])c1Sc1nc2ccccc2[nH]1 ?
Data returned: 41.1 µM (inactive)

Data request: GI50 for COc1cc2c(cc1OC)[C@H](C)N1CCc3cc(OC)c(OC)cc3[C@@H]1C2 ?
Data returned: > 100 µM (inactive)

Data request: GI50 for CC(=O)O[C@H]1/C(=C/c2ccc(N(C)C)cc2)C[C@H]2[C@@H]3CC=C4C[C@@H](N5CCCC5)CC[C@]4(C)[C@H]3CC[C@]12C ?
Data returned: > 100 µM (inactive)

Data request: GI50 for Cc1nc2nnnn2c2c1C(=O)Nc1ccccc1N2 ?
Data returned: > 100 µM (inactive)

---
Data request: GI50 for C#CCn1c(=O)c(C)cn(/C(=C/C(=O)OCC)C(=O)OCC)c1=O ?
Data returned: 2.84 µM (inactive)

Data request: GI50 for O=S(=O)(c1cnccc1N1CCN(CCO)CC1)N1CCCC1 ?
Data returned: > 100 µM (inactive)

----------
System: OVCAR-8
procedure-summary: NCI tumour cell line growth inhibition, 48 h
Calls of active or inactive are those of the source. Rule as the data show it: active = GI50 up to about 1.1 µM and inactive = higher.
measure-name: GI50

Data request: GI50 for COc1ccc2c(c1)[n+]([O-])c(C(=O)C/C(=N/NC(=O)c1ccccc1O)C(=O)Nc1ccc(Cl)c(C(F)(F)F)c1)c(C)[n+]2[O-] ?
Data returned: 43.8 µM (inactive)

Data request: GI50 for Brc1cc(C2OCCCO2)ccc1OCc1ccccc1 ?
Data returned: 57.3 µM (inactive)

Data request: GI50 for CC(C)c1c(O)c(O)c2c(c1O)C(=O)C(O)=C1C(C)(C)CCC[C@@]12C ?
Data returned: 2.71 µM (inactive)

Data request: GI50 for CCC1c2[nH]c3ccccc3c2C[C@H]2C(=O)NC(C)C(=O)N12 (stereo partly specified) ?
Data returned: > 100 µM (inactive)

Data request: GI50 for O=C(O)c1cc(/N=N/c2ccc([As](=O)(O)O)cc2)ccc1O ?
Data returned: > 100 µM (inactive)

Data request: GI50 for CC1=C(C#N)C2C(=C(N)Oc3ccccc32)C(N)=N1 (stereo unspecified) ?
Data returned: 25.1 µM (inactive)

---
Data request: GI50 for COc1cc(C[P+](c2ccccc2)(c2ccccc2)c2ccccc2)cc(OC)c1OC ?
Data returned: > 100 µM (inactive)

Data request: GI50 for N=C(N)NS(=O)(=O)c1ccc(NC(=O)c2cccc3c(Nc4ccc(S(=O)(=O)N=C(N)N)cc4)c4ccccc4nc23)cc1 ?
Data returned: 32.3 µM (inactive)

----------
Tested on: EKVX
procedure-summary: NCI tumour cell line growth inhibition, 48 h
Active and inactive are the calls of the source. No stated cut-off is given here; in the data, active = GI50 up to about 1.1 µM and inactive = higher.
measure-name: GI50

Solved cases below.
Data request: GI50 for O=C(Sc1c(-c2ccccc2)c(=O)n(-c2ccccc2)c(=S)n1-c1ccccc1)c1cccs1 ?
Data returned: > 100 µM (inactive)

Data request: GI50 for NC1=NN(c2ccccc2)C2(c3ccncc3C(=O)O)C1C(N)=NN2c1ccccc1 (stereo unspecified) ?
Data returned: > 100 µM (inactive)

Data request: GI50 for Nc1ccccc1SCc1csc(-c2ccc(Cl)cc2)n1 ?
Data returned: 25.9 µM (inactive)

Data request: GI50 for Cn1ccnc1C(c1nccn1C)C(C)(C)[N+](=O)[O-] ?
Data returned: > 100 µM (inactive)

Data request: GI50 for CC#CC#C/C(=C/C=CC(=O)OC)SC ?
Data returned: > 100 µM (inactive)

---
Data request: GI50 for Nc1ccc2c(SCc3ccc([N+](=O)[O-])cc3)c3ccccc3nc2c1 ?
Data returned: 24.8 µM (inactive)

----------
Entries and their measured GI50 follow.
Tested on: NCI/ADR-RES
procedure-summary: NCI tumour cell line growth inhibition, 48 h
Calls of active or inactive are those of the source. No stated cut-off is given here; in the data, active = GI50 up to about 1.1 µM and inactive = higher.

Data request: GI50 for CCOc1c(OC)cc(C2c3cc4c(c(OCC)c3CC3COC(=O)C32)OCO4)cc1OC (centres undefined) ?
Data returned: 2.03 µM (inactive)

---
Data request: GI50 for COc1cc([N+](=O)[O-])c(S(=O)(=O)[O-])cc1-[n+]1nc(C(=O)Nc2ccccc2)nn1-c1ccc([N+](=O)[O-])c(S(=O)(=O)O)c1 ?
Data returned: > 100 µM (inactive)

Data request: GI50 for O=C1c2cccnc2C(=O)c2c1nc1ccccc1c2-c1cncc(-c2c3c(nc4ccccc24)C(=O)c2cccnc2C3=O)c1 ?
Data returned: 0.253 µM (active)

Data request: GI50 for Cc1ccc(-c2c(C#N)c(S)n(NS(=O)(=O)c3ccc(C)cc3)c(=O)c2C#N)cc1 ?
Data returned: 32.8 µM (inactive)

Data request: GI50 for O=C1CSC2(CC(/C=C/c3cccc(Br)c3)=NN2c2cccc(S(=O)(=O)O)c2)N1c1nc2ccccc2s1 (centres undefined) ?
Data returned: > 100 µM (inactive)

Data request: GI50 for CC(C)(C)CC(C)(C)c1ccc(O)c(C[N+](C)(C)[O-])c1 ?
Data returned: > 100 µM (inactive)

----------
Test system: UO-31
procedure-summary: NCI tumour cell line growth inhibition, 48 h
Calls of active or inactive are those of the source. No stated cut-off is given here; in the data, active = GI50 up to about 1.1 µM and inactive = higher.
# output must be one of active, inactive

Solved cases below.
Data request: Any idea what this test logged for Cn1c(=O)c2nc(NCCO)cnc2n(C)c1=O ?
Data returned: inactive

Data request: Any idea what this test logged for COc1ccc(NC(C(N)=O)c2cc3cc(Br)ccc3nc2Cl)cc1 (configuration not stated) ?
Data returned: inactive

Data request: Any idea what this test logged for Brc1ccc2c(c1)[C@H]1CCc3c([nH]c4ccccc34)[C@H]1N2 ?
Data returned: inactive

Data request: Any idea what this test logged for O=C(O)/C=C/C(=O)N1C/C(=C\c2ccccc2)C(=O)/C(=C/c2ccccc2)C1 ?
Data returned: inactive

Data request: Any idea what this test logged for O=C(O)c1ccccc1/C=N\N=C1NCCCCN1 ?
Data returned: inactive

---
Data request: Any idea what this test logged for Nc1n[nH]c(Nc2ccc(Cl)cc2)c1P(=O)(c1ccccc1)c1ccccc1 ?
Data returned: inactive

Data request: Any idea what this test logged for O=C1C(CN2CCCC2)CCCC1CN1CCCC1 (configuration not stated) ?
Data returned: active

Data request: Any idea what this test logged for CON(C)C(=O)C(C)N(Cc1ccccc1)Cc1ccccc1 (configuration not stated) ?
Data returned: inactive

Data request: Any idea what this test logged for COc1cc(/C=C2\N=C(c3ccccc3)N(c3nc4ccc(Sc5ccccc5)cc4[nH]3)C2=O)ccc1O ?
Data returned: inactive

Data request: Any idea what this test logged for CC1=C(C(=O)CC(=O)C(=O)Nc2ccc(Cl)cc2C)Sc2ccccc2N1 ?
Data returned: inactive

Data request: Any idea what this test logged for Clc1cccc(Cl)c1C1SCc2nc3ccccc3n21 (configuration not stated) ?
Data returned: inactive

Data request: Any idea what this test logged for O=C(NCCCC/N=c1/cccccc1NCCCCNC(=O)OCc1ccccc1)OCc1ccccc1 ?
Data returned: inactive

Data request: Any idea what this test logged for Cc1ccc(-c2nnc(SCC(=O)O)[nH]2)cc1 ?
Data returned: inactive

Data request: Any idea what this test logged for Fc1cccc(C2SCC3=Nc4ccccc4CN32)c1 (configuration not stated) ?
Data returned: inactive

Data request: Any idea what this test logged for COc1ccc(N2C(=O)CC(c3c[nH]c4ccccc34)C2=O)cc1 (configuration not stated) ?
Data returned: inactive

Data request: Any idea what this test logged for Cc1nc2cccc(F)c2c(=O)n1-c1nnc(C2CC2)s1 ?
Data returned: inactive

Data request: Any idea what this test logged for N#CCCN(CCC#N)c1ccc(/C=C2\SC(=S)NC2=O)cc1 ?
Data returned: inactive

Data request: Any idea what this test logged for N#CC1(Nc2ccc(-c3ccc(NC4(C#N)CCCC4)cc3)cc2)CCCC1 ?
Data returned: inactive
